Molecular target: PDGFRalpha(V561D) (Homo sapiens, UniProt P16234, V561D)
Construct: recombinant human PDGFRalpha, amino acids 550end containing the V561 D mutation; 6His (N)
Sequence (P16234 550-1089 V561D): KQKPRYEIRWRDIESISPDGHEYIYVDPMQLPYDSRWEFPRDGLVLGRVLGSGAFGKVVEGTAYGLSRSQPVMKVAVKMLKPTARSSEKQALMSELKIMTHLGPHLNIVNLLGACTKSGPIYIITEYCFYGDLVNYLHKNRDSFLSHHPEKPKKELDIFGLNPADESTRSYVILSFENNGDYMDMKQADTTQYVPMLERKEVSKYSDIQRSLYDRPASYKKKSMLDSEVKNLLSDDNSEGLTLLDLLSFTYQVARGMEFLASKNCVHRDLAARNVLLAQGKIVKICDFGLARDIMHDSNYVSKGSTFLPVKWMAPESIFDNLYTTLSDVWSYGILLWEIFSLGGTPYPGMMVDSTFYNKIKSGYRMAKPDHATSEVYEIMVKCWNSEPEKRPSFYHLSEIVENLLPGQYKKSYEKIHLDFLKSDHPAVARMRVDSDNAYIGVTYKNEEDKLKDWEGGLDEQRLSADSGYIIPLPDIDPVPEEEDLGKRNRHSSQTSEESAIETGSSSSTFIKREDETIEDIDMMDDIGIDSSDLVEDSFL
Assay: PDGFRalpha(V561D) assay
Type: biochemical
Conditions: recombinant human PDGFRalpha aa 550-end, 200 μM ATP, 1.4E-06 means 1.4×10^−6, read-out: Inhibition (IC50) of PDGFRα (V561D)
Consider the following molecules; for each one, report its pIC50.
Numbers only, as −log10 of the molar value.

>>> result_number("CN1CCCN(c2ccc(-n3cc(-c4cc5cc(F)cnc5[nH]c4=O)nn3)cc2)CC1")
7.21
>>> result_number("NC1CCN(C(=O)c2ccc(-n3cc(-c4cc5cc(F)c(F)cc5[nH]c4=O)nn3)cc2)CC1")
6.51
>>> result_number("CN(C)C(=O)c1ccc(-n2cc(-c3cc4cc(F)ccc4[nH]c3=O)nn2)cc1")
8.30

State the recorded pIC50 for every item in the following list.
1. CN(C)[C@@H]1CCCN(C(=O)c2ccc(-n3cc(-c4cc5cc(F)c(F)cc5[nH]c4=O)nn3)cc2)C1
2. CN1CCC(CCOc2ccc(-n3cc(-c4cc5cc(F)ccc5[nH]c4=O)nn3)cc2)CC1
3. O=C(c1ccc(-n2cc(-c3cc4cc(F)cnc4[nH]c3=O)nn2)cc1)N1CCOCC1
4. O=C1CNCCN1c1ccc(-n2cc(-c3cc4cc(F)c(F)cc4[nH]c3=O)nn2)cc1
5. O=C(c1ccc(-n2cc(-c3cc4ccncc4[nH]c3=O)nn2)cc1)N1CCOCC1

7.01
7.35
7.89
6.74
7.64
